The entries below are paired with their reported Neut IC50 (ug/ml) subtype B.
- tgt: RSV F protein of subtype B strain 18537, on virus (respiratory syncytial virus subtype B …, UniProt P13843 26-574)
- Sequence (P13843 26-574): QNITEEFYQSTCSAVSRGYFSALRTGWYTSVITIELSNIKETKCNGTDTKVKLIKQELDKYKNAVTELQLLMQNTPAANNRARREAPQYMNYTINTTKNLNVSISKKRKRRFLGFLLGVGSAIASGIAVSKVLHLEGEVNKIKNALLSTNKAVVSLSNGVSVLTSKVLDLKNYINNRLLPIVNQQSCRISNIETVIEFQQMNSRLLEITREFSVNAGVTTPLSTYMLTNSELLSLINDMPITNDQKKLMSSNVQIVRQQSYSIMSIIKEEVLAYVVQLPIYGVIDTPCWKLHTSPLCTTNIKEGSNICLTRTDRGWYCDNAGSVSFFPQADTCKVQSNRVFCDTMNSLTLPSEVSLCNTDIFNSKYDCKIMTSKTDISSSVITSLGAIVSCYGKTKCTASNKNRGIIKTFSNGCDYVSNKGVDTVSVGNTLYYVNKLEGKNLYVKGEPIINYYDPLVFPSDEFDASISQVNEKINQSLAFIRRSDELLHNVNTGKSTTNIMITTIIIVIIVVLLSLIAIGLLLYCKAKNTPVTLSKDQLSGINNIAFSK
- test name: cell-based or functional assay
endpoint label: Neut IC50 (ug/ml) subtype B

>  <binder>
ADI-15653 (antibody, V domains shown, IgG) VH: QVQLVQSGAEVKKPGSSVKVSCKSSGGTFSNYIISWVRQAPGQGLEWMGGIVPLSGTTDYAQKFQGRVTITADKSTTTAYMELRTLRPEDTAVYYCARGSGGSNAYFDPWGQGTLVTVSS VL: QSVVTQPPSVSVAPGKTAKITCGGNNIGSKSVYWYQQKPGQAPVLVMYYDTYRPSGIPERFSGSNSGNSATLTISRVDAGDEADYYCQVWDSRSDHPYVFGSGTKLTVL

>  <endpoint label>
Neut IC50 (ug/ml) subtype B

>  <assay value>
> 10 µg/mL

$$$$
>  <binder>
ADI-15599 (antibody, V domains shown, IgG; also called Antibody Number 165) VH: EVQLLESGGGLVQPGRSLRLSCSGSGFTFGDYALSWVRQAPGKGLEWVGFIRSKAYGGTTEYAASVKGRFTISRDDSKSIAYLQMNSLKTEDTAVYYCTMAVVVPGATDAFDIWGQGTMVTVSS VL: NFMLTQPHSVSESPGKTVTISCTRSSGSIASDYVQWFQQRPGSSPATVIYQDNQRPSGVPDRFSGSIDTSSNSASLTISGLKTEDEADYYCHSYDSSNPWVFGGGTKLTVL

>  <endpoint label>
Neut IC50 (ug/ml) subtype B

>  <assay value>
0.378 µg/mL

$$$$
>  <binder>
ADI-15628 (antibody, V domains shown, IgG) VH: QVQLVQSGGGVVQPGRSLRLSCAASGFTFSDFSMHWVRQAPGKGLEWVALISNDGSNKYYSDSLKGSFIISRDNSKNTLYLQLNSLGAEDTALYYCARDAVPHYDYVWGNFDYWGPGTLVTVSS VL: QPVLTQPASVSASPGQSITISCTGTSSDVGGYNYVSWYQQHPGKAPKLIVYEVSNRPSGVSNRFSGSKSGNTASLTISGLQADDEADYYCSSYTSFTPVVFGGGTKVTVL

>  <endpoint label>
Neut IC50 (ug/ml) subtype B

>  <assay value>
0.034 µg/mL

$$$$
